B1: Transitional endoplasmic reticulum ATPase, residues 26 to 106; numbered along this chain, P55072 (parent)
chain: LIVDEAINEDNSVVSLSQPKMDELQLFRGDTVLLKGKKRREAVCIVLSDDTCSDEKIRMNRVVRNNLRVRLGDVISIQPCP

Variants of: B1
Assay: abundance fitness (aPCA) (normalised: wild type 0, dead -1); higher = more abundant; growth selection in yeast, the domain comes from the species named
Settings: Homo sapiens
assay endpoint: abundance fitness
Hey, just send me the number, nothing else.

# input variant: `D4P` ; wanted: its abundance fitness -1.11

# input variant: `Q25A` ; wanted: its abundance fitness -0.116

# input variant: `V62P` ; wanted: its abundance fitness -0.378

# input variant: `E9Q` ; wanted: its abundance fitness -0.127

# input variant: `Q78L` ; wanted: its abundance fitness -0.01

# input variant: `N8C` ; wanted: its abundance fitness -0.015

# input variant: `V74Y` ; wanted: its abundance fitness -0.052

# input variant: `I45A` ; wanted: its abundance fitness -0.006

# input variant: `N60I` ; wanted: its abundance fitness -0.681

# input variant: `E23D` ; wanted: its abundance fitness -0.23

# input variant: `L67A` ; wanted: its abundance fitness -0.601

# input variant: `C80Q` ; wanted: its abundance fitness 0.104

# input variant: `K20I` ; wanted: its abundance fitness -0.008

# input variant: `N8D` ; wanted: its abundance fitness 0.075

# input variant: `G36K` ; wanted: its abundance fitness -0.423

# input variant: `C80D` ; wanted: its abundance fitness -0.064

# input variant: `F27C` ; wanted: its abundance fitness 0.045

# input variant: `L34G` ; wanted: its abundance fitness -0.46

# input variant: `Q18W` ; wanted: its abundance fitness -0.206

# input variant: `E41D` ; wanted: its abundance fitness -0.125

# input variant: `D49N` ; wanted: its abundance fitness -0.254

# input variant: `S53A` ; wanted: its abundance fitness -0.019
